The entries below come with measured inhibition at 12.5 µM values attached.
system: PC-3 cells (human prostate cancer cells); assay: PC-3 cell proliferation (MTT); type: cell-based; conditions: 24 hours, 12.5 uM
Please state the figure in %; there is no need to write the unit.

Ask: Look up inhibition at 12.5 µM for this compound: CCCCCc1cc(CCO)c(N)c(CCCCC)c1
Reply: 0

Ask: Can you check CCCCCc1cc(CCO)c(O)c(CCCCC)c1 next?
Reply: 0

* * *

test system: PC-3 cells (human prostate cancer cells); experiment: PC-3 cell proliferation (MTT); type: cell-based; conditions: 24 hours, 25 uM
The entries below come with measured inhibition at 25 µM values attached.
Kindly report the value followed by its unit.

CCCCCc1cc(CCCCC)c(O)c(CC(N)=O)c1
0%
CCCCCc1cc(CCCCC)c(O)c(CC(=O)O)c1 [PCtrl, reference compound]
0%
CCCCCc1cc(CCO)c(O)c(CCCCC)c1
63.6%
CCCCCc1cc(CCO)c(N)c(CCCCC)c1
39.1%

Ask: Look up inhibition at 25 µM for this compound: OCCc1cc(Cc2ccccc2)cc(Cc2ccccc2)c1
Reply: 42.8%

* * *

system: PC-3 cells (human prostate cancer cells); test: PC-3 cell proliferation (MTT); assay type: cell-based; settings: 24 hours, 12.5 uM
quantity.kind: inhibition at 12.5 µM (%)
Please state the figure in %; there is no need to write the unit.

CCCCCc1cc(CCCCC)c(O)c(CC(=O)O)c1 [PCtrl, reference compound]
0
CCCCCc1cc(CCCCC)c(O)c(CC(N)=O)c1 [Representative Compound 1]
0

Read the next record carefully.
Ask: Look up inhibition at 12.5 µM for this compound: OCCc1cc(Cc2ccccc2)cc(Cc2ccccc2)c1 [Representative Compound 5]
Reply: 1.7
